ASSAYED SYSTEM: ciGPR84 (Ctenopharyngodon idella)
ASSAY TEXT: pGL4.33 (SRE) luciferase reporter assay, activation of ERK signaling in HEK293T cells transfected with ciGPR84
CONDITION CONTEXT: HEK293T co-transfected with ciGPR84 and pGL4.33 (SRE-luciferase); 6 h treatment; read-out: EC50 for activation of ERK signaling through ciGPR84
VALUE TYPE: pEC50
Worth noting: pEC50 values are minus log10 of concentrations stated in mol/L.

COMPOUND: CCCCCCCCCCCC(=O)O [lauric acid]
READING: 2.37

Now for another entry.
CCCCCCCCCCC(=O)O [undecanoic acid] tested on ciGPR84 (Ctenopharyngodon idella) gave pEC50: 1.86

---

Form field: IC50 (one value per entry).
ASSAYED SYSTEM: ciGPR84 (Ctenopharyngodon idella, UniProt A0A8K1PH93)
Sequence (A0A8K1PH93 entry or part of it): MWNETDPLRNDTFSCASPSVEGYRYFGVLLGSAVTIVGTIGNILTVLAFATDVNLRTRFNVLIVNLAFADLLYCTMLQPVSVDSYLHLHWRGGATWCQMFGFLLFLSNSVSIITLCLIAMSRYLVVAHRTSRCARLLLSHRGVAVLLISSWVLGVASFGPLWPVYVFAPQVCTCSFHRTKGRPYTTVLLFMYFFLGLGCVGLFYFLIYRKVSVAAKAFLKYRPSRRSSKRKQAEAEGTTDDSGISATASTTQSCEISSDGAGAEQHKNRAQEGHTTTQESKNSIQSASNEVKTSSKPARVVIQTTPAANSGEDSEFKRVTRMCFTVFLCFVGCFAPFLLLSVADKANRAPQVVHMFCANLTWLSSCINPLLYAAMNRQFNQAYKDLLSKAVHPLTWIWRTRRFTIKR
ASSAY TEXT: pGL4.29 (CRE) luciferase reporter assay, inhibition of forskolin-induced cAMP signaling in HEK293T cells transfected with ciGPR84
CONDITION CONTEXT: HEK293T co-transfected with pciGPR84 and pGL4.29; 5 μM forskolin; 6 h treatment; read-out: IC50 (half-maximal inhibitory concentration) on cAMP through ciGPR84
Report only the number, with the unit µM understood.

IC50 reading for `CCCCCCCCCCC(=O)O` : 1490

IC50 reading for `CCCCCCCCCCCC(=O)O` : 301
